Species: Rattus norvegicus
Test: DrugMatrix - Regimen: Daily Repeat
Format: toxicity, organism-based, Sprague-Dawley
Set-up: regimen Daily Repeat, gender Male, age 6-8 weeks
Conditions: in vivo, ip, 40 mg/kg, 120 h, tissue Blood, route intraperitoneal, dose level High, time 5 day, vehicle 100 % SALINE
MEASURE: ABSOLUTE EOSINOPHIL (cells/µL)
Unit cells/µL implied. Number only.

// query Give the measured ABSOLUTE EOSINOPHIL of "CCN[C@@H]1C[C@H](N)[C@@H](O[C@H]2OC(CN)=CC[C@H]2N)[C@H](O)[C@H]1O[C@H]1OC[C@](C)(O)[C@H](NC)[C@H]1O" .
// result 100
